Source listed as ChEMBL document CHEMBL3286254.

measured.on: Suppressor of tumorigenicity 14 protein (Homo sapiens, UniProt Q9Y5Y6)
Sequence (Q9Y5Y6 whole entry): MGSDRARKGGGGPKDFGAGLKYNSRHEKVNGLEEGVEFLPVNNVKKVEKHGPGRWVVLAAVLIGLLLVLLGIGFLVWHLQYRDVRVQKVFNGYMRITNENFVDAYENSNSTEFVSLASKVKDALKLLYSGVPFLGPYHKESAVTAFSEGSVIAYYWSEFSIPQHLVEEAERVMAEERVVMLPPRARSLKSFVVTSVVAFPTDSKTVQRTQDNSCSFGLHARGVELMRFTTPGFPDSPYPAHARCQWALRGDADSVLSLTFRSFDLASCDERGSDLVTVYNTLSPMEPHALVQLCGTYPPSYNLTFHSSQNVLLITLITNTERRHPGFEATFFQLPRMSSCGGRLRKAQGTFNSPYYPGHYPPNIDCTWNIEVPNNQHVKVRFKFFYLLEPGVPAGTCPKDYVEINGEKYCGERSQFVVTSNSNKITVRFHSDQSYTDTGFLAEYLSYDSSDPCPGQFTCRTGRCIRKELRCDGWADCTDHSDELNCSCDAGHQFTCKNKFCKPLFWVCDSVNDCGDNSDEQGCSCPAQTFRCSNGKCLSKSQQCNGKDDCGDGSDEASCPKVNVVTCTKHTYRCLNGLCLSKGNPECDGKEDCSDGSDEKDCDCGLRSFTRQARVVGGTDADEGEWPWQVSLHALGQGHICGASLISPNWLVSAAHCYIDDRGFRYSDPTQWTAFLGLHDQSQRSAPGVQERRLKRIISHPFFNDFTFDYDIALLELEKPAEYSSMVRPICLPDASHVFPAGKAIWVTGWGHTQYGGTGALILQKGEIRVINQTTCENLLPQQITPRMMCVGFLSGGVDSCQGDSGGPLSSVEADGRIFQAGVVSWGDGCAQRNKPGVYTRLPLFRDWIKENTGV
experiment.summary: Inhibition of recombinant matriptase (unknown origin) using Boc-Gln-Ala-Arg-7-amido-4-methyl coumarin hydrobromide
measured.attribute: Ki (nM)

Field: example entries. Status: answers known.
molecule	Ki (nM)
N=C(N)c1ccc(Oc2cc(OCc3cccc(C(=N)N)c3)cc(C(=O)N[C@H]3CC[C@H](N)CC3)c2)cc1	6
N=C(N)c1cccc(COc2cc(OCc3cccc(C(=N)N)c3)cc(C(=O)N[C@H]3CC[C@H](N)CC3)c2)c1	3

[I] N=C(N)c1ccc(Oc2cc(Oc3ccc(C(=N)N)cc3)cc(C(=O)O[C@H]3CC[C@H](N)CC3)c2)cc1
[II] N=C(N)c1ccc(Oc2cc(NS(=O)(=O)c3ccc(F)cc3)cc(Oc3ccc(C(=N)N)cc3)c2)cc1
[in] Between I and II , which one shows the larger Ki value? Selection: enter the item's label.
[out] II
(II: 1980 nM, I: 1 nM)

[I] N=C(N)c1ccc(Oc2cc(Oc3ccc(C(=N)N)cc3)cc(C(=O)N3CCC4CCCCC4C3)c2)cc1 (configuration not stated)
[II] CC1CCC(C(=O)Nc2cc(Oc3ccc(C(=N)N)cc3)cc(Oc3ccc(C(=N)N)cc3)c2)CC1 (configuration not stated)
[III] N=C(N)c1ccc(Oc2cc(Oc3ccc(N)cc3)cc(C(=O)N[C@H]3CC[C@H](N)CC3)c2)cc1
[IV] N=C(N)c1cccc(C[C@@H](NS(=O)(=O)c2cccc(C3CCC(N)=NC3)c2)C(=O)N2CCC(CCN)CC2)c1 (some centres not stated)
[V] N=C(N)c1ccc(Oc2cc(Oc3ccc(C(=N)N)cc3)cc(C(N)=O)c2)cc1
[in] Please put the entries in order of rising Ki. Reply: labels, ordered per the request.
[out] IV, I, II, III, V
